- assayTarget: CDK4/Cyclin D3 (Homo sapiens) (UniProt P11802+P30281)
- protocolText: Inhibition of human CDK4/CyclinD3 at 1 uM by enzymatic radiometric assay
- Assay type: protein-complex assay
Please enter t where inhibition is greater than or equal to 70%, and f where it is lower.

Query block: Decide: is the reported value of inhibition for COC(=O)c1ccc(NC(=O)C2(C(=O)Nc3ccc(Nc4ncc5cc(C(=O)N(C)C)n(C6CCCC6)c5n4)cc3)CC2)cc1 equal to or greater than 70%?
Result block: t

Further cases:
Query block: Decide: is the reported value of inhibition for CN(C)C(=O)c1cc2cnc(Nc3ccc(N4CCN(C(=O)C5(C(=O)Nc6ccc(F)cc6)CC5)CC4)cn3)nc2n1C1CCCC1 equal to or greater than 70%?
Result block: t

Query block: Same lookup for CN(C)C(=O)c1cc2cnc(Nc3ccc(NC(=O)C4(C(=O)Nc5ccc(F)cc5)CC4)cc3F)nc2n1C1CCCC1 , please.
Result block: t

Query block: Same lookup for COc1cccc(NC(=O)C2(C(=O)Nc3ccc(Nc4ncc5cc(C(=O)N(C)C)n(C6CCCC6)c5n4)cc3)CC2)c1 , please.
Result block: f

Query block: Same lookup for CN(C)C(=O)c1cc2cnc(Nc3ccc(NC(=O)C4(C(=O)Nc5ccc(Cl)cc5)CC4)cc3)nc2n1C1CCCC1 , please.
Result block: f

Query block: Same lookup for CN(C)C(=O)c1cc2cnc(Nc3ccc(NC(=O)C4(C(=O)Nc5ccccc5)CC4)cc3)nc2n1C1CCCC1 , please.
Result block: t

Query block: Same lookup for CN(C)C(=O)c1cc2cnc(Nc3ccc(NC(=O)C4(C(=O)Nc5ccc(Cl)c(C(F)(F)F)c5)CC4)cc3)nc2n1C1CCCC1 , please.
Result block: f

* * *

Reported inhibition of growth at 1 µM is given for each of the following compounds.
- System: HeLa
- protocolText: Growth inhibition of human HeLa cells incubated for 72 hrs at 1 uM by CCK8 assay
- Type: functional
- conditionDescription: read-out: GI
Give just the number in %; leave the unit off.

Study these solved cases before continuing.
Query block: Query (compound): CN(C)C(=O)c1cc2cnc(Nc3ccc(N)cn3)nc2n1C1CCCC1 ; field requested: inhibition of growth at 1 µM
Result block: 3.7

Query block: Same lookup for CN(C)C(=O)c1cc2cnc(Nc3ccc(NC(=O)C4(C(=O)Nc5ccc(F)cc5)CC4)cc3)nc2n1C1CCCC1 , please.
Result block: 49.8

Query block: Same lookup for CN(C)C(=O)c1cc2cnc(Nc3ccc(NC(=O)C4(C(=O)Nc5ccc(O)cc5)CC4)cc3)nc2n1C1CCCC1 , please.
Result block: 62.3

Query block: Same lookup for Nc1ccc(NC(=O)C2(C(=O)Nc3ccc(F)cc3)CC2)cc1F , please.
Result block: 14

Query block: Same lookup for CN(C)C(=O)c1cc2cnc(Nc3ccc(NC(=O)C4(C(=O)Nc5cccc(O)c5)CC4)cc3)nc2n1C1CCCC1 , please.
Result block: 57

Query block: Same lookup for CN(C)C(=O)c1cc2cnc(Nc3ccc(NC(=O)C4(C(=O)Nc5ccc(F)cc5)CC4)cc3F)nc2n1C1CCCC1 , please.
Result block: 6.2

Then there is this compound:
Query block: Query (compound): CN(C)C(=O)c1cc2cnc(Nc3ccc(NC(=O)C4(C(=O)Nc5ccc(Cl)c(C(F)(F)F)c5)CC4)cc3)nc2n1C1CCCC1 ; field requested: inhibition of growth at 1 µM
Result block: 16.5
